- target under test: bovine carbonic anhydrase II (Bos taurus, UniProt P00921)
- Construct: Carbonic anhydrase II from bovine erythrocytes; purchased Sigma-Aldrich C2522; host or cells: bovine erythrocytes (natural source)
- Sequence (P00921 whole entry): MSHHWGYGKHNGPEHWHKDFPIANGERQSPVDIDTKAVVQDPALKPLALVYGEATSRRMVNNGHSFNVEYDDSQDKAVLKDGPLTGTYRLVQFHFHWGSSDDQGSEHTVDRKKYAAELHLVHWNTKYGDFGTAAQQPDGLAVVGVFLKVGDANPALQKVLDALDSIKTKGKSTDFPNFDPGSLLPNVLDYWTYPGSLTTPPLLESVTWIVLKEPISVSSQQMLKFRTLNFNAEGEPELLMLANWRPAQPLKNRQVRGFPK
- assay text: Titration of bovine carbonic anhydrase II with DNSA (fluorescence)
- Type: binding
- test parameters: determined by titration experiments; value used in the mass balance; enzyme species not stated; read-out: dissociation constant Kd for DNSA
- Description: General. […] All fluorescence measurements were performed on a SPECTRA MAX GEMINI fluorescence plate reader at 37° C. […] General. The fluorescence competition assay developed by Whitesides et al. (J. Am. Chem. Soc. 1994, 116, 5057) and J. C. […] The assay is based on the observation that the only fluorescence signal detected at 460 nm upon excitation at 290 nm, an absorption minimum for DNSA, is that of the DNSA·CA complex. […]
readout: pKd
Give only the number. pKd is defined as minus log10 of concentration in molar units.

# get_value(readout='pKd', item= CN(C)c1cccc2c(S(N)(=O)=O)cccc12 ) 6.41
